- measuredTarget: human GLP-1 receptor (human, UniProt P43220 24-463)
- methodNotes: cell-based or functional assay
*1 amine or outer side, *2 acyl side, *3 side chain or, on linkers, in order; H or OH if unused. Where no end group is shown, it is not given here. Side-chain parts run from the residue outwards. [ ]: non-standard residue; d: D form. The star is where a group is joined. γGlu = O=C(O)[C@H](CCC(=O)[*:2])N[*:1]; Palmitoyl = CCCCCCCCCCCCCCCC(=O)*; Aib = CC(C)(N)C(=O)O
measuredProperty: EC50 hGLP-1R (cAMP formation) (pM)
Enter your answer as a number in pM; do not include the unit.

Some binders with known EC50 hGLP-1R (cAMP formation) results, for comparison:
Can you share its EC50 hGLP-1R (cAMP formation)? I mean this binder: H[dS]QGTFTSDLSKQMESRRAQDFIEWLKSGGPSSGAPPPSK([γGlu-aleuritolyl])-NH2 [SEQ ID NO: (93)]
188

Entry to check: H[dS]QGTFTSDLSKQMESRRAQDFIEWLK[Aib]GGPSSGAPPPK(Palmitoyl)-NH2 [SEQ ID NO: (81)]
19.7

Further cases:
For HSQGTFTSDLSKQMEEERAKDFIEWLKNGGPSSGAPPPS-NH2 [SEQ ID NO: (17)] , what is its reported EC50 hGLP-1R (cAMP formation)?
24.1

Reference source for all entries: patent US20130336893A1
